Hello, the source for this data is the supplement of paper PMC11061612, in case you need it.

- Test system: DAN-G (Pancreatic Carcinoma);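 note: after 72 h of two-drug dosing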
- test: Bliss excess, mean over the matrix (fraction); higher = more synergy
readoutName: Bliss excess

Example molecules with recorded Bliss excess:
CN(CCO)CC[C@H](CSc1ccccc1)Nc1ccc(S(=O)(=O)NC(=O)c2ccc(N3CCC([C@@H](O)c4ccccc4-c4ccc(Cl)cc4)CC3)cc2)cc1S(=O)(=O)C(F)(F)F [AZD4320] + CN(C)CCCOc1ccc(-c2ccc3ncc4c(c3c2)n(C2CCOCC2)c(=O)n4C)cn1 [AZD0156] (first compound max 1 µM, 7x7, partner max 1 µM)
-0.0031
C[C@@H](c1ccc2nccn2c1)n1nnc2ncc(-c3cnn(C)c3)nc21 [Savolitinib] + CN(CC[C@H](CSC1=CC=CC=C1)NC2=C(C=C(C=C2)S(=O)(=O)NC(=O)C3=CC=C(C=C3)N4CCC(CC4)[C@H](C5=CC=CC=C5C6=CC=C(C=C6)Cl)O)S(=O)(=O)C(F)(F)F)CCO [AZD4320] (first compound max 1 µM, 7x7, partner max 1 µM)
-0.0378

# evaluate next
Prompt line: For CN(CCO)CC[C@H](CSc1ccccc1)Nc1ccc(S(=O)(=O)NC(=O)c2ccc(N3CCC([C@@H](O)c4ccccc4-c4ccc(Cl)cc4)CC3)cc2)cc1S(=O)(=O)C(F)(F)F [AZD4320] + Cc1cc2ncnn2cc1Nc1ncc2c(n1)n(C1CCOCC1)c(=O)n2C [AZD7648] (first compound max 1 µM, 7x7, partner max 10 µM) , what is its reported Bliss excess?
Response line: -0.0484
